test system: SN12C; test: NCI tumour cell line growth inhibition, 48 h
Calls of active or inactive are those of the source. Cut-off read from the data, not from the text of the source: active = GI50 up to about 1.1 µM and inactive = higher.
measure-name: GI50

// known answers, use as guide
>>> print(df.to_string())
                                   compound  measure_name               result
0  CCN(CC)CCNC(=O)c1ccc(C)c(OCc2ccccc2)c1[N+](=O)[O-]          GI50   74.3 µM (inactive)
1  O=[N+]([O-])C(C(Cl)=C(Cl)Cl)=C(n1cncn1)n1cncn1          GI50   12.4 µM (inactive)
2  CCN(CC)C(=S)/N=C(\SC(=S)N(CC)CC)c1ccccc1          GI50   48.6 µM (inactive)
3  COC(=O)C(Cc1cc(OC)c(OC)c(OC)c1)c1ccc(OC)cc1 (stereo not drawn)          GI50  > 100 µM (inactive)
4  CCc1cccc(CC)c1Nc1nc(-c2ccccc2-c2ccccc2)cs1          GI50  > 100 µM (inactive)

Quick request: GI50 for each listed item, please.
1. COC(=O)OCC1OC(N2C(=O)NC(=O)C(I)C2N=[N+]=[N-])CC1OC(=O)OC (stereo not drawn)
2. C=CC(=O)NCNC(=O)C=C
3. O=NN1C(c2ccccc2)CCCC1c1ccccc1 (stereo not drawn)
4. COc1ccc(OC)c([N+](=O)[O-])c1-c1nc2sc(C)cn2c1/C=N/N=C(N)N

[reply]
["> 100 µM (inactive)", "> 100 µM (inactive)", "> 100 µM (inactive)", "23.4 µM (inactive)"]
